- target desc: Furin (108-574-Tev-Flag-His) enzyme (Homo sapiens, UniProt P09958)
- Construct: Furin (108-574-Tev-Flag-His) enzyme was expressed and purified from CHO cells; TEV cleavage site (C); FLAG (C); His (C); made in house; host or cells: CHO cells
- Sequence (P09958 108-574): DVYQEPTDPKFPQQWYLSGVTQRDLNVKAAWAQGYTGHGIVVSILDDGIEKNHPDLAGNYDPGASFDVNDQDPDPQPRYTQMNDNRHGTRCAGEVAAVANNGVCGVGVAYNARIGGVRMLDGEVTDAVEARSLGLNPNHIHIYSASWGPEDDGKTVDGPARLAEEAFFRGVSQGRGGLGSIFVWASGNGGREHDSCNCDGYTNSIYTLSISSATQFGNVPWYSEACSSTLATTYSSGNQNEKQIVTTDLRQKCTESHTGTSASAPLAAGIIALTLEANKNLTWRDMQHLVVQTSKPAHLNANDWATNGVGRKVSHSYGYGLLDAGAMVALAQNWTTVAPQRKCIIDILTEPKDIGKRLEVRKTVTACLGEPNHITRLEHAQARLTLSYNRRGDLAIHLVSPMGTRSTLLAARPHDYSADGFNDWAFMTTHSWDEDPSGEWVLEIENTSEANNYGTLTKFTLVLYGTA
- assay name: Furin enzyme assay
- Format: biochemical
- run conditions: read-out: furin enzyme pIC50 (converted)
test readout: IC50 (nM)

[I] CNC(=O)OCC1CCN(Cc2cc(Oc3cnc(N4CCN(C(C)CCC(=O)O)CC4)nc3)nc(-c3cc(Cl)cc(Cl)c3)c2)CC1 (stereo not drawn)
[II] CN1CCN(c2ncc(Oc3cc(CN4CCC(CC(=O)O)CC4)cc(-c4cc(Cl)cc(Cl)c4)n3)cn2)CC(F)C1 (stereo not drawn)
[III] CC(=O)NCC1CCN(Cc2cc(Oc3ccc(N4C[C@H](CN)[C@@H](O)C4)nc3)nc(-c3cc(Cl)cc(Cl)c3)c2)CC1 (relative stereo)
Q. Can you order these entries from above by IC50? Start with the largest number and work down. # format: label list in the order the request specifies
A. II, III, I
(II: 0.631 nM, III: 0.251 nM, I: 0.0126 nM)

* * *

- System: hydroxyproline (a specific marker for collagen) in mouse lung
- assay name: Bleomycin induced lung fibrosis model: hydroxyproline assay
- Format: in vivo
- run conditions: 30 mg/kg, Oral, Once daily; relative to levels induced by Bleomycin in vehicle treated animals; *p < 0.05
Counter-ions that a name gives are not always drawn.
Measured % inhibition of hydroxyproline in lung, listed per entry for reference.

The following compounds have reported results that may help.
INSERT INTO assay_data (compound, target_desc, test_readout, endpoint_result) VALUES
  ('CC(=O)NCC1CCN(Cc2cc(Oc3ccc(N4CCN(CCS(C)(=O)=O)CC4)nc3)nc(-c3cc(Cl)cc(Cl)c3)c2)CC1 [Example 12, hydrochloride]', 'hydroxyproline (a specific marker for collagen) in mouse lung', '% inhibition of hydroxyproline in lung', '45* %'),
  ('CN1CCCN(c2ncc(Oc3cc(CN4CCC(CC(=O)O)CC4)cc(-c4cc(Cl)cc(Cl)c4)n3)cn2)CC1', 'hydroxyproline (a specific marker for collagen) in mouse lung', '% inhibition of hydroxyproline in lung', '36* %'),
  ('O=C(O)CC1CCN(Cc2cc(Oc3cnc(N4CCN5CCC4C5)nc3)nc(-c3cc(Cl)cc(Cl)c3)c2)CC1 (centres unmarked) [Example 334, hydrochloride]', 'hydroxyproline (a specific marker for collagen) in mouse lung', '% inhibition of hydroxyproline in lung', '34* %'),
  ('COC(=O)NCC1CCN(Cc2cc(Oc3cnc(N4CCN(CCC(=O)O)CC4)nc3)nc(-c3cc(Cl)cc(Cl)c3)c2)CC1 [Example 62, hydrochloride]', 'hydroxyproline (a specific marker for collagen) in mouse lung', '% inhibition of hydroxyproline in lung', '−14%');

Q. Consider the compound `CN1CCCN(c2cnc(Oc3cc(CN4CCC(CC(=O)O)CC4)cc(-c4cc(Cl)cc(Cl)c4)n3)cn2)CC1` and give its measured % inhibition of hydroxyproline in lung.
A. 21* %

* * *

- target desc: furin (endogenous protease) in U20S cells (Homo sapiens)
- Construct: the endogenous protease cleaves GFP; endogenous in cells; host or cells: U2OS cells transduced with a BacMam reporter
- Sequence (P09958 108-794): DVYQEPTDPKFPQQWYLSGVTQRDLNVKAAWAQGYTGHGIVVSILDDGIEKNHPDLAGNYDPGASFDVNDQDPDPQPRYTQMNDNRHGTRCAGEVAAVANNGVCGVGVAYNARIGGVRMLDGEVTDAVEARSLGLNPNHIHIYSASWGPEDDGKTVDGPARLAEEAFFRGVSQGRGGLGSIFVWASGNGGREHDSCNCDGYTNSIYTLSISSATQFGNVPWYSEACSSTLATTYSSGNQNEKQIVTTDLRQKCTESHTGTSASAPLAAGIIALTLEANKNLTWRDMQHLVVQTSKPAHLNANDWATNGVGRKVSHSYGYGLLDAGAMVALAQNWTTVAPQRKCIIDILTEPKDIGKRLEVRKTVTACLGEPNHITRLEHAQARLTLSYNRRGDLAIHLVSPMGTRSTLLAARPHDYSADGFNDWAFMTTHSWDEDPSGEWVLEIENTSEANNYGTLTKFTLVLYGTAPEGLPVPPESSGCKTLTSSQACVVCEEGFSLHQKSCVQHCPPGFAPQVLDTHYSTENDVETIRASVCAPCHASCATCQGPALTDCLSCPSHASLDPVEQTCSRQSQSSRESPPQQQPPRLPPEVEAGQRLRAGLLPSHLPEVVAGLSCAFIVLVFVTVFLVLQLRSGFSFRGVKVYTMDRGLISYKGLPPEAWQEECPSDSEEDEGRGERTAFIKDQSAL
- assay name: Furin cell-based assay (image-based, Golgi-targeted GFP with BMP10 furin/PCSK cleavage site);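 note: Read-out is mean GFP fluorescence of Golgi puncta per cell by high-content imaging, retained when furin inhibited, over an eleven-point 0.00017–10 µM series, four-parameter fit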
- run conditions: 24-hour incubation, read-out: furin golgi cell pXC50 (converted)
Structures can show the parent of a compound that is named as a salt.
test readout: EC50 (nM)

Example cases with answers are listed next.
INSERT INTO results (molecule, target_desc, test_readout, uom, endpoint_result) VALUES
  ('CN1C[C@@H]2C[C@H]1CN2c1cnc(Oc2cc(CN3CCC(CC(=O)O)CC3)cc(-c3cc(Cl)cc(Cl)c3)n2)cn1', 'furin (endogenous protease) in U20S cells (Homo sapiens)', 'EC50', 'nM', 12.6),
  ('CC(=O)NCC1CCN(Cc2cc(Oc3ccc(N4CCN5C(=O)NCC5C4)nc3)cc(-c3cc(Cl)cc(Cl)c3)c2)CC1 (stereo not drawn) [Example 107, hydrochloride]', 'furin (endogenous protease) in U20S cells (Homo sapiens)', 'EC50', 'nM', 5.01),
  ('CNCc1cc(Oc2ccc(N3C[C@@H]4C[C@H]3CN4)nc2)cc(-c2cc(Cl)cc(Cl)c2)c1', 'furin (endogenous protease) in U20S cells (Homo sapiens)', 'EC50', 'nM', 39.8),
  ('CC(=O)NCC1CCN(Cc2cc(Oc3ccc(N4CCN(CCC(=O)O)CC4)nc3)nc(-c3cc(Cl)cc(Cl)c3)c2)CC1 [Example 11, hydrochloride]', 'furin (endogenous protease) in U20S cells (Homo sapiens)', 'EC50', 'nM', 25.1);

[a] C[C@@H](O)CN1CCN(c2ncc(Oc3cc(CN4CCC(OCC(=O)O)CC4)cc(-c4cc(Cl)cc(Cl)c4)n3)cn2)CC1
[b] CC(=O)NCC1CCN(Cc2cc(Oc3ccc(N4CCN(C(=O)CCC(=O)O)CC4)nc3)nc(-c3cc(Cl)cc(Cl)c3)c2)CC1
Q. // compare measured EC50, left a , right b , return larger Reply with the label of the item you choose.
A. b
(b: 39.8 nM, a: 15.8 nM)

* * *

- target desc: Furin (108-574-Tev-Flag-His) enzyme (Homo sapiens)
- Construct: Furin (108-574-Tev-Flag-His) enzyme was expressed and purified from CHO cells; TEV cleavage site (C); FLAG (C); His (C); made in house; host or cells: CHO cells
- assay name: Furin enzyme assay
- Assay type: biochemical
Where a name gives a salt, the structure may show the parent alone.
test readout: furin enzyme pIC50

INSERT INTO results (compound, test_readout, endpoint_result) VALUES
  ('CC(CCN(C)C)N1CCN(c2ncc(Oc3cc(CN4CCC(CC(=O)O)CC4)cc(-c4cc(Cl)cc(Cl)c4)n3)cn2)CC1 (stereo not shown) [Example 240]', 'furin enzyme pIC50', 8.4),
  ('NCCNc1ccc(Oc2cc(CN3CCOCC3)cc(-c3cc(Cl)cc(Cl)c3)c2)cn1 [Example 99, hydrochloride]', 'furin enzyme pIC50', 7.2),
  ('CNC(=O)NCC1CCN(Cc2cc(Oc3ccc(N4CCN(C)CC4)nc3)nc(-c3cc(Cl)cc(Cl)c3)c2)CC1 [Example 69]', 'furin enzyme pIC50', 9.1),
  ('CN1CCN(c2ncc(Oc3cc(CN4CCC5(CC4)CN(C(=O)CO)C5)cc(-c4cc(Cl)cc(Cl)c4)n3)cn2)CC1 [Example 135]', 'furin enzyme pIC50', 9.2),
  ('CCC(=O)NCC1CCN(Cc2cc(Oc3cnc(N4CCN(CCC(C)C(=O)O)CC4)nc3)nc(-c3cc(Cl)cc(Cl)c3)c2)CC1 (stereo not shown) [Example 59]', 'furin enzyme pIC50', 8.9),
  ('O=S(=O)(O)CCC1CCN(Cc2cc(Oc3ccc(N4CCNCC4)nc3)nc(-c3cc(Cl)cc(Cl)c3)c2)CC1 [Example 7, hydrochloride]', 'furin enzyme pIC50', 9.2),
  ('CN1CCN(c2ncc(Oc3cc(CN4CCC(OC5(C(=O)O)CC5)CC4)cc(-c4cc(Cl)cc(Cl)c4)n3)cn2)CC1 [Example 143]', 'furin enzyme pIC50', 8.4);

* * *

- target desc: Furin (108-574-Tev-Flag-His) enzyme (Homo sapiens, UniProt P09958)
- Construct: Furin (108-574-Tev-Flag-His) enzyme was expressed and purified from CHO cells; TEV cleavage site (C); FLAG (C); His (C); made in house; host or cells: CHO cells
- assay name: Furin enzyme assay
- Assay type: biochemical
Counter-ions that a name gives are not always drawn.
test readout: furin enzyme pIC50

INSERT INTO measurements (molecule, endpoint_result) VALUES
  ('CC(=O)NCC1CCN(Cc2cc(Oc3ccc(N4CC5CNCC5C4)nc3)nc(-c3cc(Cl)cc(Cl)c3)c2)CC1 (centres unmarked)', 9.1),
  ('CNC(=O)NCC1CCN(Cc2cc(Oc3ccc(N4CCN(CCS(C)(=O)=O)CC4)nc3)nc(-c3cc(Cl)cc(Cl)c3)c2)CC1', 8.2),
  ('CN1CCN(c2ccc(Oc3cc(CN4CCC(CC(=O)O)CC4)cc(-c4cc(Cl)cc(Cl)c4)n3)nn2)CC1', 9),
  ('COC(=O)NC(=O)CCN1CCN(c2ncc(Oc3cc(CN4CCC(CNC(C)=O)CC4)cc(-c4cc(Cl)cc(Cl)c4)n3)cn2)CC1', 9.2),
  ('CNC(=O)NCC1CCN(Cc2cc(Oc3cnc(N4CCNCC4)nc3)nc(-c3cc(Cl)cc(Cl)c3)c2)CC1 [Example 75, hydrochloride]', 9.1),
  ('CNC(=O)NCC1CCN(Cc2cc(Oc3cnc(N4CCN(CC(C)C(=O)O)CC4)nc3)cc(-c3cc(Cl)cc(Cl)c3)c2)CC1 (centres unmarked)', 9.4),
  ('CN1CCN(c2ncc(Oc3cc(CN4CCC(CC(N)=O)CC4)cc(-c4cc(Cl)cc(Cl)c4)n3)cn2)CC1', 8.8),
  ('CNC(=O)NCC1CCN(Cc2cc(Oc3cnc(N4CCN(CCC(=O)O)CC4)c(F)c3)nc(-c3cc(Cl)cc(Cl)c3)c2)CC1', 9.5),
  ('CC(=O)NCC1CCN(Cc2cc(Oc3ccc(N4CCN(CC(C)C(=O)O)CC4)nn3)nc(-c3cc(Cl)cc(Cl)c3)c2)CC1 (centres unmarked)', 9.7),
  ('O=C(O)CCN1CCN(c2ncc(Oc3cc(CN4CCC(CNC(=O)C5CC5)CC4)cc(-c4cc(Cl)cc(Cl)c4)n3)cn2)CC1', 9.3),
  ('CN1CCCN(c2cnc(Oc3cc(CN4CCC(CC(=O)O)CC4)cc(-c4cc(Cl)cc(Cl)c4)n3)cn2)CC1', 8.8),
  ('CS(=O)(=O)CCC1CCN(Cc2cc(Oc3ccc(N4CCN(CCC(=O)O)CC4)nc3)nc(-c3cc(Cl)cc(Cl)c3)c2)CC1', 9),
  ('CNC(=O)OCC1CCN(Cc2cc(Oc3ccc(N4CCNCC4)nc3)nc(-c3cc(Cl)cc(Cl)c3)c2)CC1 [Example 74, hydrochloride]', 8.4),
  ('CN1CCN(c2ccc(Oc3cc(CN4CCC5(CC4)CNC(=O)OC5)cc(-c4cc(Cl)cc(Cl)c4)n3)cn2)CC1', 8.6),
  ('CN1CCN(c2ccc(Oc3nc(-c4cc(Cl)cc(Cl)c4)cc(CN4CCC(CC(=O)O)CC4)c3F)nn2)CC1', 8.4),
  ('C[C@@H](O)CN1CCN(c2ccc(Oc3cc(CN4CCC(CC(=O)O)CC4)cc(-c4cc(Cl)cc(Cl)c4)n3)cn2)CC1', 8.5),
  ('CNC(=O)NCC1CCN(Cc2cc(Oc3ccc(N4CCN(CCOC)CC4)nc3)nc(-c3cc(Cl)cc(Cl)c3)c2)CC1', 8.7),
  ('O=C(O)CC1CCN(Cc2cc(Oc3cnc(N4CCN(C(CO)CO)CC4)nc3)nc(-c3cc(Cl)cc(Cl)c3)c2)CC1', 8.3),
  ('CNC(=O)OCC1CCN(Cc2cc(Oc3ccc(N4CCN(C)CC4)nc3)nc(-c3cc(Cl)cc(Cl)c3)c2)CC1', 10.4),
  ('CNC(=O)OCC1CCN(Cc2cc(Oc3cnc(N4CCN(C[C@@H](C)O)CC4)nc3)nc(-c3cc(Cl)cc(Cl)c3)c2)CC1', 9.3),
  ('O=C(O)CC1CCN(Cc2cc(Oc3cnc(N4CCN(Cc5cnn[nH]5)CC4)nc3)nc(-c3cc(Cl)cc(Cl)c3)c2)CC1', 8.5),
  ('CC(=O)NCC1CCN(Cc2cc(Oc3ccc(N4CCN(C)CC4)nn3)nc(-c3cc(Cl)cc(Cl)c3)c2)CC1', 10.8),
  ('CN1CCN(c2ncc(Oc3cc(CN4CCO[C@H](CO)CC4)cc(-c4cc(Cl)cc(Cl)c4)n3)cn2)CC1 [Example 330, hydrochloride]', 8),
  ('CCC(CN1CCN(c2ccc(Oc3cc(CN4CCC(CNC(C)=O)CC4)cc(-c4cc(Cl)cc(Cl)c4)n3)cn2)CC1)C(=O)O (centres unmarked)', 9.4),
  ('O=C(O)CC1CCN(Cc2cc(Oc3ccc(N4CCCNCC4)nc3)nc(-c3cc(Cl)cc(Cl)c3)c2)CC1', 8.5),
  ('CC(=O)NCC1CCN(Cc2cc(Oc3cnc(N4CCN(CCC(C)S(C)(=O)=O)CC4)nc3)nc(-c3cc(Cl)cc(Cl)c3)c2)CC1 (centres unmarked)', 9.1);
